Cited source for all entries: PubChem BioAssay (NCI)

# Test system: OVCAR-4 ovarian
# assayExplanation: NCI tumour cell line growth inhibition, 48 h
TGI values for the compounds below.

For orientation, consider the following solved cases.
> print(dat)
                                   compound  reportedvalue
1  CC1(c2ccccc2)CCN(C2CC2)CO1 (configuration not stated)        33.9 µM
2  CC1=NN(c2cccc(Cl)c2)C2(C1=Cc1ccccc1)C(Cl)C(=O)N2c1nc2ccccc2s1 (configuration not stated)        64.7 µM
3  CC1CCC2(OC1)OC1CC3C4CCC5CC(O)CCC5(C)C4CC(=O)OC3(C)C1C2C (configuration not stated)       > 100 µM

Challenge: Look up TGI: COc1ccc(C2=C(c3cn(C)c4ccccc34)C(=O)OC2)cc1OC
Response given: > 100 µM

Challenge: Item: CC(=O)Nc1ccccc1S(=O)(=O)c1ccccc1
Response given: > 100 µM

Challenge: Item: CCN(CC)c1ccc2cc3ccc(=[N+](CC)CC)cc-3oc2c1
Response given: 26.1 µM

Challenge: Item: O=C1NC(N/N=C/c2cccs2)=N/C1=C\c1ccco1
Response given: > 100 µM

Challenge: Item: O=C(Nc1c(O)[nH]c(=S)[nH]c1=O)c1ccco1
Response given: > 100 µM

Challenge: Item: COc1ccc(-c2nc(N3CCCC3)no2)cc1
Response given: > 100 µM

Challenge: Item: COC(=O)/C(=N\NC(N)=O)C(C(=O)C(=O)Nc1ccccc1C(=O)OC)c1nc2ccc(C(=O)c3ccccc3)cc2[nH]c1=O (configuration not stated)
Response given: > 100 µM

Challenge: Item: COc1ccc(OC)c2c1C=C[C@H](C1(C)SCCS1)C2C(C)=O (some centres not stated)
Response given: > 100 µM

Challenge: Item: NC(=O)c1c(Br)n(C2OC(CO)C(O)C2O)c2ncnc(N)c12 (configuration not stated)
Response given: 15.3 µM

Challenge: Item: CC1(C)S[C@H](c2ccccc2C(=O)O)N[C@@H]1CC(=O)O
Response given: > 100 µM

Challenge: Item: COc1cc(OC)c2nc3occc3c(OC)c2c1
Response given: > 100 µM

----------
# Test system: SK-MEL-5 melanoma
# assayExplanation: NCI tumour cell line growth inhibition, 48 h
GI50 values for the compounds below.

> print(dat)
                                   compound  attributemeasured  reportedvalue
1  CN1C[C@@H](c2ccc(Cl)cc2)[C@]2(NC(=S)N(c3ccc(F)c(Cl)c3)C2=O)[C@@]12C(=O)NC1C=CC(Cl)=C[C@H]12 (stereo partly specified)               GI50        1970 nM
2  O=C1CCc2c(Oc3ccc4c(c3)[C@H]3[C@@H](O4)[C@@H]3c3nc4ccc(C(F)(F)F)cc4[nH]3)ccnc2N1               GI50         435 nM
3                 O=C1OCC(C#Cc2ccccc2)=C1Br               GI50        1820 nM
4  N#Cc1cnc(=O)n(C2CC(O)C(CO)O2)c1 (stereo unspecified)               GI50    > 100000 nM
5            O=C(Nc1ccc(F)cc1F)c1cc(F)ccc1O               GI50        1270 nM

Next compound, GI50 to be filled in.
Challenge: Look up GI50: COC(=O)C1=C(C(=O)OC)SC(=C(Cl)C(=S)Oc2ccccc2N)S1
Response given: 8430 nM

----------
# Test system: NCI-H460 lung
# assayExplanation: NCI tumour cell line growth inhibition, 48 h
attributeMeasured: TGI

For orientation, consider the following solved cases.
> print(dat)
                                  compound  reportedvalue
1          C=CC1(c2ccc(-c3ccccc3)cc2)OCCO1       > 100 µM
2             O=C(Cc1ccccc1CCO)NCCc1ccccc1       > 100 µM
3            COc1cc(OC)c2nc3occc3c(OC)c2c1       > 100 µM
4  COc1ccc(NC(=O)NS(=O)(=O)c2ccc(C)cc2)nn1       > 100 µM
5       Cn1c(-c2cccc(N)c2)[n+](C)c2ccccc21       > 100 µM

Challenge: Look up TGI: COc1ccc2c(c1)O/C(=C\c1ncc([N+](=O)[O-])n1C)C2=O
Response given: 0.619 µM

Challenge: Item: O=C(CCN1CCOCC1)c1ccc(Oc2ccc(F)cc2)cc1
Response given: > 100 µM

Challenge: Item: CC12CCCCC1C(=O)C2(Cl)Cl (stereo not given)
Response given: 6.37 µM

Challenge: Item: COc1ccc(/C=C/C(=O)c2ccc(Cl)cc2Cl)cc1
Response given: 41.3 µM

Challenge: Item: COc1ccc2c(c1)N=C(N)n1c(nc3ccccc31)S2
Response given: > 100 µM

----------
# System: NCI-H460 lung
# assayExplanation: NCI tumour cell line growth inhibition, 48 h
TGI values for the molecules below.

For orientation, consider the following solved cases.
> print(dat)
                                   molecule  reportedvalue
1              CN(C)CCCNC(=O)c1cccc2ccccc12       > 100 µM
2  O=C(OCCO)C1CC2CC1C1(C2)OCCO1 (stereo unspecified)       > 100 µM
3   CC(=O)Nc1c(Br)cc2c(c1Br)Cc1cc(Br)ccc1-2        11.4 µM
4  Cc1ccc(S(=O)(=O)N(/N=C/C=C/c2ccccc2)c2nnc(-c3ccccc3)c(-c3ccccc3)n2)cc1       > 100 µM

Challenge: Look up TGI: C/C(=N\OCC(O)CNC(C)C)c1ccc2c(c1)NC(=O)CS2 (stereo unspecified)
Response given: > 100 µM

Challenge: Item: O=C(Nc1sccc1S(=O)(=O)c1ccc(Cl)cc1)c1ccc(Cl)cc1
Response given: > 100 µM

----------
# Test system: HCC-2998 colon
# assayExplanation: NCI tumour cell line growth inhibition, 48 h; in the data active = GI50 below about 0.43 µM; inactive = the rest
Hello, when you answer, please use one of the following outcomes: Y = active, N = inactive

Challenge: Recorded call for O=C1CCc2c(Oc3ccc4c(c3)[C@H]3[C@@H](O4)[C@@H]3c3nc4ccc(C(F)(F)F)cc4[nH]3)ccnc2N1 ?
Response given: N

Challenge: Item: O=C(Nc1ccc(F)cc1F)c1cc(F)ccc1O
Response given: N

----------
# Test system: OVCAR-3 ovarian
# assayExplanation: NCI tumour cell line growth inhibition, 48 h
Rule: 1 (yes) for TGI not less than 7 µM, 0 (no) for anything less.

> print(dat)
                                   compound   targetorsystem    class
1  ClC(Cl)c1nc(-c2ccccc2)n2nc(-c3ccccc3)cc2n1  OVCAR-3 ovarian   0 (no)
2  COc1ccc(OC)c(/C=C/C(=O)N/N=C/c2ccccc2)c1  OVCAR-3 ovarian  1 (yes)
3  c1ccc(C2N=NN(c3ccccc3)C2N2CCCCC2)cc1 (stereo not given)  OVCAR-3 ovarian  1 (yes)
4  C[C@@H](CC(O)C1OC1(C)C)[C@@H]1CC[C@]2(C)C3=CCC4C(C)(C)C(O)CC[C@]4(C)C3CCC12C (stereo not given in full)  OVCAR-3 ovarian  1 (yes)
5  CCOC(=O)CO/N=C\C1=CC(=O)C2CC1C2(C)C (stereo not given)  OVCAR-3 ovarian  1 (yes)
6  CC(=O)/C(=C/n1ccc(=O)[nH]c1=S)C(=O)Nc1ccccc1C  OVCAR-3 ovarian  1 (yes)
7  CC1(C)Cc2c(c3ccccc3c3nc4c(nc23)c2c(c3ccccc34)OC(C)(C)C2)O1  OVCAR-3 ovarian  1 (yes)
8  C#C[C@@]1(O)[C@@H](CO)O[C@@H](n2cc(Br)c3c(N)ncnc32)[C@@H]1O  OVCAR-3 ovarian   0 (no)

Challenge: Exam item: decide whether the reported TGI for CCN(Cc1ccccn1)c1ccc(CO)c(Cl)c1 is at least 7 µM.
Response given: 1 (yes)

Challenge: Item: COc1ccc(/C=C/C(=O)c2ccc(Cl)cc2Cl)cc1
Response given: 1 (yes)

Challenge: Item: CCOC(=O)C(=Cc1ccccc1Cl)C(=O)OCC
Response given: 0 (no)

Challenge: Item: CC1(C)CC(=O)c2c(nc3c4c([nH]c(-c5ccc([N+](=O)[O-])cc5)c24)CC(C)(C)C3)C1
Response given: 1 (yes)

Challenge: Item: NC(=S)C1=C(N)Oc2c(c(=O)oc3ccccc23)C1c1ccc(Br)cc1 (stereo not given)
Response given: 1 (yes)

----------
# Test system: OVCAR-8 ovarian
# assayExplanation: NCI tumour cell line growth inhibition, 48 h
attributeMeasured: TGI

Challenge: Look up TGI: CC1=NN(c2cccc(Cl)c2)C2(C1=Cc1ccccc1)C(Cl)C(=O)N2c1nc2ccccc2s1 (stereo not drawn)
Response given: > 100 µM

Challenge: Item: c1ccc2nc(-c3ccc4c(c3)OCO4)ccc2c1
Response given: > 100 µM

Challenge: Item: COC1(OC)CC2CCCCC2=C(C)N1S(=O)(=O)c1ccccc1 (stereo not drawn)
Response given: > 100 µM

Challenge: Item: Nc1cc(N)c2nc(-c3ccccc3)c(NCCc3ccc(Cl)c(Cl)c3)nc2c1
Response given: 6.02 µM

Challenge: Item: N#C/C(=C1C=C/C(=N/O)C(Cl)=C/1)c1ccc(Cl)cc1
Response given: 51.9 µM

Challenge: Item: Cc1nc2ccc(Cl)cc2c(Cl)c1CCCl
Response given: > 100 µM

Challenge: Item: C[C@]12CC[C@H]3[C@@H](CCC4=C[C@@H](N5CCCC5)CC[C@@]43C)[C@@H]1C/C(=C\c1ccncc1)[C@@H]2O
Response given: 63.5 µM

Challenge: Item: CCN(CC)CC1CCCCN1CC(=O)N1c2ccccc2NC(=O)c2ccccc21 (stereo not drawn)
Response given: > 100 µM
